The measured values listed here are drawn from paper PMC5540273.

Give %Inh for every item shown.
- Test system: TAOK2;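 further: KINOMEscan kinase panel screen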
- setup conditions: concentration: 1 μM, replicates: in singlicate; n = 1
Give bare numbers, in %.

| molecule | tested target | metric | recorded result |
| --- | --- | --- | --- |
| COC(=O)Nc1nc2cc(Oc3ccc(NC(=O)Nc4cc(F)ccc4F)cc3)ccc2[nH]1.Cl | TAOK2 | %Inh | 0 |
| O=C(Nc1cccc(-c2nn3ncccc3c2-c2ccnc(Nc3cccc(C(F)(F)F)c3)n2)c1)c1c(F)cccc1F | TAOK2 | %Inh | 41 |
| [2H]C([2H])(c1cccc(C(F)(F)F)c1C)n1ccn2c(=O)nc(N3CCOCC3)cc12 | TAOK2 | %Inh | 0 |

I'm hoping you can list %Inh for every molecule here, please.
1. COc1cc2c(cc1OCCN1CCN(C)CC1)ncc1c3ccc(C#N)cc3[nH]c21
2. O=C1NC(=O)C(N2CCc3ccccc32)=C1c1cccc(Cl)c1
3. Cc1c(Cn2c(C)nn3c(=O)cc(N4CCOC(C)C4)nc23)cccc1C(F)(F)F (stereo not drawn)
4. Cc1c2ccc(N(C)c3ccnc(Nc4cccc(S(N)(=O)=O)c4)n3)cc2nn1Cc1ccccc1.Cl.Cl
5. Nc1nccc(-c2c(-c3ccc(F)cc3)ncn2C2CCN(CC(F)(F)F)CC2)n1
6. COCCNC(=O)c1ccc(-c2cc(C(=O)NC3CC3)cc(F)c2C)cc1
7. O=C(c1ccc(-c2cc(-c3c[nH]nc3-c3ccccn3)ccn2)cc1)N1CCOCC1
8. Cc1nnc(-c2ccc(C)c(-c3ccc(C(=O)Nc4ccc(NS(C)(=O)=O)cc4)cc3)c2)o1

**Result**
[13, 0, 0, 72, 0, 16, 33, 0]
